- assay_notes: Common metabolites in rat plasma by GC-MS/MS after polyI:C and/or maoto
- Type: in vivo
- condition_parameters: PM/P (polyI:C+maoto vs polyI:C), 1h
Catalogue of log2FC of plasma level values
observed_property: log2FC of plasma level

[[record]]
molecule = "O=C(O)Cc1cc(O)ccc1O"
value_observed = 0.68

[[record]]
molecule = "O=C[C@H](O)[C@H](O)[C@H](O)CO"
value_observed = -1.38

[[record]]
molecule = "NC(N)=O"
value_observed = -0.02

[[record]]
molecule = "NCC(=O)O"
value_observed = -0.12

[[record]]
molecule = "O=C(CO)C(O)C(O)CO (centres unmarked)"
value_observed = -0.26


* * *

- assay_notes: Plasma PK of major maoto compounds by LC-MS/MS after oral administration of maoto
- Format: in vivo, rat
- condition_parameters: Sprague-Dawley, rat, plasma, po, 4 g/kg; read-out: Cmax
observed_property: log10 of Cmax (log10 of the value in ng/mL)

[[record]]
compound = "O=C(/C=C/c1ccc(O[C@@H]2O[C@H](CO)[C@@H](O)[C@H](O)[C@H]2O)cc1)c1ccc(O)cc1O [Isoliquiritin]"
value_observed = 0.94

[[record]]
compound = "Oc1cc(O)c2c(c1)O[C@H](c1ccc(O)c(O)c1)[C@H](O)[C@H]2c1c(O)cc(O)c2c1O[C@H](c1ccc(O)c(O)c1)[C@H](O)[C@H]2c1c(O)cc(O)c2c1O[C@H](c1ccc(O)c(O)c1)[C@H](O)C2 [Procyanidin C1]"
value_observed = 0.59

[[record]]
compound = "CN[C@@H](C)[C@@H](O)c1ccccc1 [d-Pseudoephedrine, d-pseudoephedrine]"
value_observed = 2.40

[[record]]
compound = "O=C1C[C@@H](c2ccc(O[C@@H]3O[C@H](CO)[C@@H](O)[C@H](O)[C@H]3O)cc2)Oc2cc(O)ccc21 [Liquiritin]"
value_observed = 1.86

[[record]]
compound = "O=C(O)/C=C/c1ccccc1 [Cinnamic acid]"
value_observed = 3.33

[[record]]
compound = "Oc1cc(O)c2c(c1)O[C@H](c1cc(O)c(O)c(O)c1)[C@H](O)C2 [Epigallocatechin]"
value_observed = -0.34

[[record]]
compound = "CC(C(O)c1ccccc1)N(C)C (racemic) [dl-Methylephedrine]"
value_observed = 1.57


* * *

- assay_notes: Plasma PK of major maoto compounds by LC-MS/MS after oral administration of maoto
- Assay type: in vivo, rat
- condition_parameters: Sprague-Dawley, rat, plasma, po, 1 g/kg
Catalogue of AUC(0-t) values
observed_property: AUC(0-t)

[[record]]
compound = "O=C(/C=C/c1ccc(O[C@@H]2O[C@H](CO)[C@@H](O)[C@H](O)[C@H]2O)cc1)c1ccc(O)cc1O [Isoliquiritin]"
value_observed = "2.09 ng·h/mL"

[[record]]
compound = "CC1(C)[C@@H](O)CC[C@]2(C)[C@H]3C(=O)C=C4[C@@H]5C[C@@](C)(C(=O)O)CC[C@]5(C)CC[C@@]4(C)[C@]3(C)CC[C@@H]12 [Glycyrrhetinic acid]"
value_observed = "2240 ng·h/mL"

[[record]]
compound = "Oc1cc(O)c2c(c1)O[C@H](c1ccc(O)c(O)c1)[C@H](O)C2 [Epicatechin]"
value_observed = "4.24 ng·h/mL"

[[record]]
compound = "CN[C@@H](C)[C@H](O)c1ccccc1 [l-Ephedrine, l-ephedrine]"
value_observed = "730 ng·h/mL"

[[record]]
compound = "COc1c(CC=C(C)C)c(O)cc2oc(=O)c(-c3ccc(O)cc3O)cc12 [Glycycoumarin]"
value_observed = "0.0105 ng·h/mL"

[[record]]
compound = "O=C(O)/C=C/c1ccccc1 [Cinnamic acid]"
value_observed = "624 ng·h/mL"

[[record]]
compound = "O=C(/C=C/c1ccc(O)cc1)c1ccc(O)cc1O [Isoliquiritigenin]"
value_observed = "19.8 ng·h/mL"

[[record]]
compound = "O=C1C[C@@H](c2ccc(O[C@@H]3O[C@H](CO)[C@@H](O)[C@H](O)[C@H]3O)cc2)Oc2cc(O)ccc21 [Liquiritin]"
value_observed = "8.9 ng·h/mL"

[[record]]
compound = "Oc1cc(O)c2c(c1)O[C@H](c1cc(O)c(O)c(O)c1)[C@H](O)C2 [Epigallocatechin]"
value_observed = "0.457 ng·h/mL"

[[record]]
compound = "N#C[C@H](O[C@@H]1O[C@H](CO)[C@@H](O)[C@H](O)[C@H]1O)c1ccccc1 [Prunasin]"
value_observed = "5520 ng·h/mL"


* * *

- assay_notes: Plasma PK of major maoto compounds by LC-MS/MS after oral administration of maoto
- Type: in vivo, rat
- condition_parameters: Sprague-Dawley, rat, plasma, po, 4 g/kg
Please use the following half-life ranges when assigning a class: bucket 1: < 3 h; bucket 2: ≥ 3 h and < 4 h; bucket 3: ≥ 4 h

[[record]]
compound = "O=C(/C=C/c1ccc(O)cc1)c1ccc(O)cc1O [Isoliquiritigenin]"
class_name = "bucket 2"

[[record]]
compound = "CC(C(O)c1ccccc1)N(C)C (racemic) [dl-Methylephedrine]"
class_name = "bucket 3"

[[record]]
compound = "CN[C@@H](C)[C@H](O)c1ccccc1 [l-Ephedrine, l-ephedrine]"
class_name = "bucket 3"

[[record]]
compound = "N#C[C@H](O[C@@H]1O[C@H](CO)[C@@H](O)[C@H](O)[C@H]1O)c1ccccc1 [Prunasin]"
class_name = "bucket 2"

[[record]]
compound = "N#C[C@H](O[C@@H]1O[C@H](CO[C@@H]2O[C@H](CO)[C@@H](O)[C@H](O)[C@H]2O)[C@@H](O)[C@H](O)[C@H]1O)c1ccccc1 [Amygdalin]"
class_name = "bucket 1"

[[record]]
compound = "Oc1cc(O)c2c(c1)O[C@H](c1ccc(O)c(O)c1)[C@H](O)C2 [Epicatechin]"
class_name = "bucket 2"

[[record]]
compound = "COc1cc2ccc(=O)oc2cc1O [Scopoletin]"
class_name = "bucket 3"

[[record]]
compound = "O=C(O)/C=C/c1ccccc1 [Cinnamic acid]"
class_name = "bucket 1"

[[record]]
compound = "O=C1C[C@@H](c2ccc(O[C@@H]3O[C@H](CO)[C@@H](O)[C@H](O)[C@H]3O)cc2)Oc2cc(O)ccc21 [Liquiritin]"
class_name = "bucket 3"

[[record]]
compound = "O=C(/C=C/c1ccc(O[C@@H]2O[C@H](CO)[C@@H](O)[C@H](O)[C@H]2O)cc1)c1ccc(O)cc1O [Isoliquiritin]"
class_name = "bucket 2"

[[record]]
compound = "Oc1cc(O)c2c(c1)O[C@H](c1cc(O)c(O)c(O)c1)[C@H](O)C2 [Epigallocatechin]"
class_name = "bucket 1"

[[record]]
compound = "CN[C@@H](C)[C@@H](O)c1ccccc1 [d-Pseudoephedrine, d-pseudoephedrine]"
class_name = "bucket 2"


* * *

Catalogue of half-life values
- assay_notes: Plasma PK of major maoto compounds by LC-MS/MS after oral administration of maoto
- Type: in vivo, rat
- condition_parameters: Sprague-Dawley, rat, plasma, po, 1 g/kg
observed_property: half-life (h)

[[record]]
compound = "Oc1cc(O)c2c(c1)O[C@H](c1ccc(O)c(O)c1)[C@H](O)C2 [Epicatechin]"
observed_property = "half-life"
unit_string = "h"
value_observed = 5.05

[[record]]
compound = "CN[C@@H](C)[C@@H](O)c1ccccc1 [d-Pseudoephedrine, d-pseudoephedrine]"
observed_property = "half-life"
unit_string = "h"
value_observed = 5.82

[[record]]
compound = "N#C[C@H](O[C@@H]1O[C@H](CO[C@@H]2O[C@H](CO)[C@@H](O)[C@H](O)[C@H]2O)[C@@H](O)[C@H](O)[C@H]1O)c1ccccc1 [Amygdalin]"
observed_property = "half-life"
unit_string = "h"
value_observed = 1.31

[[record]]
compound = "N#C[C@H](O[C@@H]1O[C@H](CO)[C@@H](O)[C@H](O)[C@H]1O)c1ccccc1 [Prunasin]"
observed_property = "half-life"
unit_string = "h"
value_observed = 0.891

[[record]]
compound = "Oc1cc(O)c2c(c1)O[C@H](c1cc(O)c(O)c(O)c1)[C@H](O)C2 [Epigallocatechin]"
observed_property = "half-life"
unit_string = "h"
value_observed = 5.23

[[record]]
compound = "CC(C(O)c1ccccc1)N(C)C (racemic) [dl-Methylephedrine]"
observed_property = "half-life"
unit_string = "h"
value_observed = 5.96

[[record]]
compound = "O=C1C[C@@H](c2ccc(O[C@@H]3O[C@H](CO)[C@@H](O)[C@H](O)[C@H]3O)cc2)Oc2cc(O)ccc21 [Liquiritin]"
observed_property = "half-life"
unit_string = "h"
value_observed = 1.95

[[record]]
compound = "CN[C@@H](C)[C@H](O)c1ccccc1 [l-Ephedrine, l-ephedrine]"
observed_property = "half-life"
unit_string = "h"
value_observed = 1.35

[[record]]
compound = "O=C(/C=C/c1ccc(O[C@@H]2O[C@H](CO)[C@@H](O)[C@H](O)[C@H]2O)cc1)c1ccc(O)cc1O [Isoliquiritin]"
observed_property = "half-life"
unit_string = "h"
value_observed = 2.3

